Reference source for all entries: patent US20170022201A1

assay metric: melting point (°C)
Give bare numbers, in °C.

compound=COCCCN1CCCN(C)C(=O)CN2CCN(CC2)Cc2cccc(c2)Nc2cc(ccn2)-c2cnc1nc2 result_number=240
compound=COCCN1CCN(C)C(=O)CN2CCN(CC2)Cc2cccc(c2)Nc2cc(ccn2)-c2cnc1nc2 result_number=240
compound=O=C1CNCCNc2ccc(cn2)-c2ccnc(c2)Nc2cccc(c2)CN2CCN1CC2 result_number=143
compound="CC1CN2CCN1Cc1cccc(c1)Nc1cc(ccn1)-c1ccc(nc1)NCCCNC(=O)C2 (stereo not shown)" result_number=162

API: the following record is the query input.
For the compound shown here, "O=C1CN2CCN(CC2)Cc2cccc(c2)Nc2cc(ccn2)-c2ccc(nc2)NCCN1" , give the reported melting point. 252
